target: UniProt P23458
Sequence (P23458 whole entry): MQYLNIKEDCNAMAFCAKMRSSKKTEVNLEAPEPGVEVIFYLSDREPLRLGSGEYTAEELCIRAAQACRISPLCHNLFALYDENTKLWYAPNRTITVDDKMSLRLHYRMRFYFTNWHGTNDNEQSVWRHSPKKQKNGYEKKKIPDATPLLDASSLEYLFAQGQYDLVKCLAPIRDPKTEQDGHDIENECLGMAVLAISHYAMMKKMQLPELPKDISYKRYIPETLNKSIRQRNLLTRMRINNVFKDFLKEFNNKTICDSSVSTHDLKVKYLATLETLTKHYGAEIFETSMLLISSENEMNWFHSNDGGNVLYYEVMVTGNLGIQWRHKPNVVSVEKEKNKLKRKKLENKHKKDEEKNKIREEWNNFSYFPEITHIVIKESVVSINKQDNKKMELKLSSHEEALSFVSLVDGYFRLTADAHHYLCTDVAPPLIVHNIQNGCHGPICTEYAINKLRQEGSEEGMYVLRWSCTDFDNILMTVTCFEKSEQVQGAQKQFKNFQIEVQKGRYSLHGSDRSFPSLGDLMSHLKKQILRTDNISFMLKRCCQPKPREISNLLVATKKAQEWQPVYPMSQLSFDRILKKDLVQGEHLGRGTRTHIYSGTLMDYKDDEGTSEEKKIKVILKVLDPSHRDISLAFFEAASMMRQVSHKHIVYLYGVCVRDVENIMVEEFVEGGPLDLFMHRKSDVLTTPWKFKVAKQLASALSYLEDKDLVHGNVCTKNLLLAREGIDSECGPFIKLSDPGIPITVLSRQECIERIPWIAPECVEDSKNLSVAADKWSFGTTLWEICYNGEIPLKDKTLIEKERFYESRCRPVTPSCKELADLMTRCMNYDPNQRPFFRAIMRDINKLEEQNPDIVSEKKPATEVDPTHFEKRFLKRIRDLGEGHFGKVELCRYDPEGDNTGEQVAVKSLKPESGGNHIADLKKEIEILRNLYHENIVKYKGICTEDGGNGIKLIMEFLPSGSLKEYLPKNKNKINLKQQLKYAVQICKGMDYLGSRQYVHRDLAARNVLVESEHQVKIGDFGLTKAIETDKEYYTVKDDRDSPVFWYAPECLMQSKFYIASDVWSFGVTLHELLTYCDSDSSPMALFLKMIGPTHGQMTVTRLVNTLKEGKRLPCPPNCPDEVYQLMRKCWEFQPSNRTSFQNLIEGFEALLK
pIC50: −log10 of the molar value.

{"given.smiles": "CC(C)(C)NS(=O)(=O)c1cccc(N2CCc3cnc(Nc4ccc(N5CCCCC5)cc4)nc32)c1", "pIC50": 6.96}
{"given.smiles": "CC(C)(C)NS(=O)(=O)c1cccc(N2CCc3cnc(Nc4ccc(N5CCOCC5)cc4)nc32)c1", "pIC50": 6.66}
{"given.smiles": "CC(C)(C)NS(=O)(=O)c1cccc(N2CCc3cnc(Nc4ccc(CN5CCSCC5)cc4)nc32)c1", "pIC50": 7.05}
{"given.smiles": "CC(C)(C)NS(=O)(=O)c1cccc(N2CCc3cnc(Nc4ccc(C5CCNCC5)cc4)nc32)c1", "pIC50": 6.89}
{"given.smiles": "CN1CCN(CCOc2ccc(Nc3ncc4c(n3)N(c3cccc(S(=O)(=O)NC(C)(C)C)c3)CC4)cc2)CC1", "pIC50": 6.98}
{"given.smiles": "CN1CCN(c2ccc(Nc3ncc4c(n3)N(c3cccc(S(=O)(=O)NC(C)(C)C)c3)CC4)cc2)CC1", "pIC50": 7.14}
{"given.smiles": "CC(C)(C)NS(=O)(=O)c1cccc(N2CCc3cnc(Nc4ccc(OCCN5CCCC5)cc4)nc32)c1", "pIC50": 6.68}
{"given.smiles": "CC(C)(C)NS(=O)(=O)c1cccc(N2CCc3cnc(Nc4ccc(OCCN5CCCCC5)cc4)nc32)c1", "pIC50": 7.00}
{"given.smiles": "CC(C)(C)NS(=O)(=O)c1cccc(N2CCc3cnc(Nc4ccc(CN5CCCC5)cc4)nc32)c1", "pIC50": 6.98}
{"given.smiles": "CN1CCN(Cc2ccc(Nc3ncc4c(n3)N(c3cccc(S(=O)(=O)NC(C)(C)C)c3)CC4)cc2)CC1", "pIC50": 7.01}
{"given.smiles": "CC(C)(C)NS(=O)(=O)c1cccc(N2CCc3cnc(Nc4ccc(OCCN5CCOCC5)cc4)nc32)c1", "pIC50": 7.00}
{"given.smiles": "CC(C)(C)NS(=O)(=O)c1cccc(N2CCc3cnc(Nc4ccc(OC5CCNCC5)cc4)nc32)c1", "pIC50": 6.92}
{"given.smiles": "CCN1CCN(Cc2ccc(Nc3ncc4c(n3)N(c3cccc(S(=O)(=O)NC(C)(C)C)c3)CC4)cc2)CC1", "pIC50": 6.82}
{"given.smiles": "CC(C)(C)NS(=O)(=O)c1cccc(N2CCc3cnc(Nc4ccc(OCCN5CCNCC5)cc4)nc32)c1", "pIC50": 6.72}
{"given.smiles": "CC(C)(C)NS(=O)(=O)c1cccc(N2CCc3cnc(Nc4ccc(CN5CCS(=O)(=O)CC5)cc4)nc32)c1", "pIC50": 6.72}
